Target: CYP3A4 (Homo sapiens)
Sequence (P08684 whole entry): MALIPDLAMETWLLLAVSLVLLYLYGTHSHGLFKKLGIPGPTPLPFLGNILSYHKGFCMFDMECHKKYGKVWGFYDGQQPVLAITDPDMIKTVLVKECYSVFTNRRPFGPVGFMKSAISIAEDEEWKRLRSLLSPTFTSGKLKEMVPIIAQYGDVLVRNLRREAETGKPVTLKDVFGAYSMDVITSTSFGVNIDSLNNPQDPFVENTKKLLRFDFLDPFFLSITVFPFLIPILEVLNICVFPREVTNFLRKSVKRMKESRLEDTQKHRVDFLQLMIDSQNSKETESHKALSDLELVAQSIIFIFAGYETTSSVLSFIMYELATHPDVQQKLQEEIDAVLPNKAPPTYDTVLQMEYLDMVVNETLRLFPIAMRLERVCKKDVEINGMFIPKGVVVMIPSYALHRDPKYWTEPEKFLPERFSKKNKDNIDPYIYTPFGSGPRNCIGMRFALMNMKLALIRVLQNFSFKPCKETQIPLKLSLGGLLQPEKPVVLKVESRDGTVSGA
Assay: Mechanism based inhibition of human cytochrome P450 3A4 measured by triazolam alpha- hydroxylation using human liver microsomes
Format: ADME, Microsome
Details: probe triazolam (alpha-hydroxylation)
MEASURE: kinact
Could you kindly put the unit after your number?

Which kinact reading was recorded for the molecule "CC[C@H]1OC(=O)[C@H](C)[C@@H](O[C@H]2C[C@@](C)(OC)[C@@H](O)[C@H](C)O2)[C@H](C)[C@@H](O[C@@H]2O[C@H](C)C[C@H](N(C)C)[C@H]2O)[C@](C)(O)C[C@@H](C)C(=O)[C@H](C)[C@@H](O)[C@]1(C)O" ?
0.00103 s⁻¹

----------
Target: Cytochrome P450 2C9 (Homo sapiens, UniProt P11712)
Sequence (P11712 whole entry): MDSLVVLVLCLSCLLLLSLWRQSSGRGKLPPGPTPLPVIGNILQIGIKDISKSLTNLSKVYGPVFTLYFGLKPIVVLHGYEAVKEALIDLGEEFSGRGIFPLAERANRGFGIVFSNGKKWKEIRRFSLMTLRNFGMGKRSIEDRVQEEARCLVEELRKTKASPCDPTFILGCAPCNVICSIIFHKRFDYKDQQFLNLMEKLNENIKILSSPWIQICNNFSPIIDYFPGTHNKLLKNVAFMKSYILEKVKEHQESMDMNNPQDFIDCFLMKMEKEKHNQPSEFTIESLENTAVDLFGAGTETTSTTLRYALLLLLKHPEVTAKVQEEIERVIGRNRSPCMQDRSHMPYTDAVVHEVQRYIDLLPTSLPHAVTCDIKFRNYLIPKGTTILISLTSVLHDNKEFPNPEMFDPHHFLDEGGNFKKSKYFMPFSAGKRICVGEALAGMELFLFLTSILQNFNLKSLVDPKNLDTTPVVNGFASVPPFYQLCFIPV
Experiment: Mechanism based inhibition of human cytochrome P450 2C9
Format: ADME
MEASURE: Ki (µM)
Your answer is read as µM, so omit the unit and give the number.

Which Ki reading was recorded for the molecule CC(C(=O)O)c1ccc(C(=O)c2cccs2)cc1 (racemic) [SUPROFEN] ?
3.7
